Data provenance is PubChem BioAssay AID1919000.

# System: 653999-131-R-J2-PDC complex spheroids, growth % test/control
# experimentalDetails: Anticancer human tumor 653999-131-R-J2-PDC patient-derived lung adenocarcinoma cell line growth inhibition [AhR]
# assayConditions: second compound 3.16 µM; first compound 0.316 µM; stronger effect = lower value
The compounds listed here are annotated with their viability, T/C.
Kindly answer with a numeric value in %, unit omitted.

[
  {
    "compound": "CC(C)c1c(-c2ccccc2)nc2c(C#N)c[nH]n2c1=O + CC(CO)NC(=O)c1cc(-c2ccc(Cl)cc2)nn(-c2cnn(C)c2)c1=O",
    "viability, T/C [%]": 123
  }
]

Quick check: viability, T/C of Nc1ccccc1NC(=O)c1ccc(CNC(=O)OCc2cccnc2)cc1 + Cc1cncc(-c2nc(NCCc3c[nH]c4ccccc34)c3ncn(C(C)C)c3n2)c1 ? 88.4

Quick check: viability, T/C of Nc1ncn(C2CC(O)C(CO)O2)c(=O)n1 (stereo not drawn) + Cc1cncc(-c2nc(NCCc3c[nH]c4ccccc34)c3ncn(C(C)C)c3n2)c1 ? 96.9

----------
# System: 653999-131-R-J2-PDC complex spheroids, growth % test/control
# experimentalDetails: Anticancer human tumor 653999-131-R-J2-PDC cell line growth inhibition [AhR];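 note: spheroids exposed to agents for seven days; 100% = DMSO vehicle control viability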
# assayConditions: second compound 10 µM; first compound 0.3 µM; stronger effect = lower value
Binarize viability, T/C at 50%; below is satisfied, at or above is not satisfied.

// known answers, use as guide
[
  {
    "compound": "Nc1ncn(C2CC(O)C(CO)S2)c(=O)n1 (configuration not stated) + CC(CO)NC(=O)c1cc(-c2ccc(Cl)cc2)nn(-c2cnn(C)c2)c1=O",
    "assaySystem": "653999-131-R-J2-PDC complex spheroids, growth % test/control",
    "classification": "not satisfied"
  },
  {
    "compound": "CCc1c2c(nc3ccc(O)cc13)-c1cc3c(c(=O)n1C2)COC(=O)[C@]3(O)CC + Cc1ccccc1N=Nc1ccc(NC(=O)c2ccnn2C)c(C)c1",
    "assaySystem": "653999-131-R-J2-PDC complex spheroids, growth % test/control",
    "classification": "satisfied"
  },
  {
    "compound": "CC(C)CC(NC(=O)C(Cc1ccccc1)NC(=O)c1cnccn1)B(O)O (configuration not stated) + Cc1cncc(-c2nc(NCCc3c[nH]c4ccccc34)c3ncn(C(C)C)c3n2)c1",
    "assaySystem": "653999-131-R-J2-PDC complex spheroids, growth % test/control",
    "classification": "satisfied"
  },
  {
    "compound": "CCN(c1cc(-c2ccc(CN3CCOCC3)cc2)cc(C(=O)NCc2c(C)cc(C)[nH]c2=O)c1C)C1CCOCC1 + CC(CO)NC(=O)c1cc(-c2ccc(Cl)cc2)nn(-c2cnn(C)c2)c1=O",
    "assaySystem": "653999-131-R-J2-PDC complex spheroids, growth % test/control",
    "classification": "not satisfied"
  },
  {
    "compound": "CCc1c2c(nc3ccc(O)cc13)-c1cc3c(c(=O)n1C2)COC(=O)[C@]3(O)CC + Cc1cncc(-c2nc(NCCc3c[nH]c4ccccc34)c3ncn(C(C)C)c3n2)c1",
    "assaySystem": "653999-131-R-J2-PDC complex spheroids, growth % test/control",
    "classification": "satisfied"
  },
  {
    "compound": "CCN(c1cc(-c2ccc(CN3CCOCC3)cc2)cc(C(=O)NCc2c(C)cc(C)[nH]c2=O)c1C)C1CCOCC1 + Cc1ccccc1N=Nc1ccc(NC(=O)c2ccnn2C)c(C)c1",
    "assaySystem": "653999-131-R-J2-PDC complex spheroids, growth % test/control",
    "classification": "not satisfied"
  },
  {
    "compound": "O=C(C=Cn1cnc(-c2cc(C(F)(F)F)cc(C(F)(F)F)c2)n1)NNc1cnccn1 + Cc1ccccc1N=Nc1ccc(NC(=O)c2ccnn2C)c(C)c1",
    "assaySystem": "653999-131-R-J2-PDC complex spheroids, growth % test/control",
    "classification": "not satisfied"
  },
  {
    "compound": "CC(C)CC(NC(=O)C(Cc1ccccc1)NC(=O)c1cnccn1)B(O)O (configuration not stated) + Cc1ccccc1N=Nc1ccc(NC(=O)c2ccnn2C)c(C)c1",
    "assaySystem": "653999-131-R-J2-PDC complex spheroids, growth % test/control",
    "classification": "satisfied"
  }
]

Please state whether viability, T/C is below 50% for CC(C)CC(NC(=O)C(Cc1ccccc1)NC(=O)c1cnccn1)B(O)O (configuration not stated) + CC(CO)NC(=O)c1cc(-c2ccc(Cl)cc2)nn(-c2cnn(C)c2)c1=O satisfied

Please state whether viability, T/C is below 50% for CCc1c2c(nc3ccc(O)cc13)-c1cc3c(c(=O)n1C2)COC(=O)[C@]3(O)CC + CC(CO)NC(=O)c1cc(-c2ccc(Cl)cc2)nn(-c2cnn(C)c2)c1=O satisfied

Please state whether viability, T/C is below 50% for O=C(C=Cn1cnc(-c2cc(C(F)(F)F)cc(C(F)(F)F)c2)n1)NNc1cnccn1 + Cc1cncc(-c2nc(NCCc3c[nH]c4ccccc34)c3ncn(C(C)C)c3n2)c1 satisfied

----------
# Tested on: 653999-131-R-J2-PDC complex spheroids, growth % test/control
# experimentalDetails: Anticancer human tumor 653999-131-R-J2-PDC cell line growth inhibition [AhR];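 note: spheroids exposed to agents for seven days; 100% = DMSO vehicle control viability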
# assayConditions: second compound 0.1 µM; first compound 1 µM; stronger effect = lower value
Binarize viability, T/C at 60%; below is MET, at or above is NOT MET.

// known answers, use as guide
[
  {
    "molecule": "COc1cccc2c1C(=O)c1c(O)c3c(c(O)c1C2=O)CC(O)(C(=O)CO)CC3OC1CC(N)C(O)C(C)O1 (configuration not stated) + Cc1cncc(-c2nc(NCCc3c[nH]c4ccccc34)c3ncn(C(C)C)c3n2)c1",
    "classification": "MET"
  },
  {
    "molecule": "COc1cc(Nc2ncc3c(n2)-c2ccc(Cl)cc2C(c2c(F)cccc2OC)=NC3)ccc1C(=O)O + CC(CO)NC(=O)c1cc(-c2ccc(Cl)cc2)nn(-c2cnn(C)c2)c1=O",
    "classification": "NOT MET"
  },
  {
    "molecule": "CC(C)c1c(-c2ccccc2)nc2c(C#N)c[nH]n2c1=O + Cc1cncc(-c2nc(NCCc3c[nH]c4ccccc34)c3ncn(C(C)C)c3n2)c1",
    "classification": "NOT MET"
  },
  {
    "molecule": "COc1cc(C2c3cc4c(cc3C(OC3OC5COC(C)OC5C(O)C3O)C3COC(=O)C23)OCO4)cc(OC)c1O (configuration not stated) + Cc1ccccc1N=Nc1ccc(NC(=O)c2ccnn2C)c(C)c1",
    "classification": "MET"
  },
  {
    "molecule": "COc1cc(Nc2ncc3c(n2)-c2ccc(Cl)cc2C(c2c(F)cccc2OC)=NC3)ccc1C(=O)O + Cc1cncc(-c2nc(NCCc3c[nH]c4ccccc34)c3ncn(C(C)C)c3n2)c1",
    "classification": "NOT MET"
  },
  {
    "molecule": "Nc1ccn(C2OC(CO)C(O)C2(F)F)c(=O)n1 (configuration not stated) + Cc1ccccc1N=Nc1ccc(NC(=O)c2ccnn2C)c(C)c1",
    "classification": "MET"
  },
  {
    "molecule": "CC1(C)CCC(CN2CCN(c3ccc(C(=O)NS(=O)(=O)c4ccc(NCC5CCOCC5)c([N+](=O)[O-])c4)c(Oc4cnc5[nH]ccc5c4)c3)CC2)=C(c2ccc(Cl)cc2)C1 + Cc1ccccc1N=Nc1ccc(NC(=O)c2ccnn2C)c(C)c1",
    "classification": "NOT MET"
  },
  {
    "molecule": "COc1cccc2c1C(=O)c1c(O)c3c(c(O)c1C2=O)CC(O)(C(=O)CO)CC3OC1CC(N)C(O)C(C)O1 (configuration not stated) + Cc1ccccc1N=Nc1ccc(NC(=O)c2ccnn2C)c(C)c1",
    "classification": "MET"
  }
]

Please state whether viability, T/C is below 60% for Nc1ncn(C2CC(O)C(CO)O2)c(=O)n1 (configuration not stated) + Cc1cncc(-c2nc(NCCc3c[nH]c4ccccc34)c3ncn(C(C)C)c3n2)c1 NOT MET

Please state whether viability, T/C is below 60% for Nc1ccn(C2OC(CO)C(O)C2(F)F)c(=O)n1 (configuration not stated) + Cc1cncc(-c2nc(NCCc3c[nH]c4ccccc34)c3ncn(C(C)C)c3n2)c1 MET

Please state whether viability, T/C is below 60% for COc1ccc([C@@H](O)c2cc(-c3ncnc4cc(N5CCOCC5)ccc34)c(F)cc2Cl)nn1 + Cc1ccccc1N=Nc1ccc(NC(=O)c2ccnn2C)c(C)c1 NOT MET

----------
# Tested on: 653999-131-R-J2-PDC complex spheroids, growth % test/control
# experimentalDetails: Anticancer human tumor 653999-131-R-J2-PDC cell line growth inhibition [AhR];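 note: spheroids exposed to agents for seven days; 100% = DMSO vehicle control viability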
# assayConditions: second compound 10 µM; first compound 1 µM; stronger effect = lower value
Binarize viability, T/C at 70%; below is condition met, at or above is condition not met.

// known answers, use as guide
[
  {
    "compound": "COc1cc(Nc2ncc3c(n2)-c2ccc(Cl)cc2C(c2c(F)cccc2OC)=NC3)ccc1C(=O)O + Cc1cncc(-c2nc(NCCc3c[nH]c4ccccc34)c3ncn(C(C)C)c3n2)c1",
    "classification": "condition met"
  },
  {
    "compound": "COc1cc(Nc2ncc3c(n2)-c2ccc(Cl)cc2C(c2c(F)cccc2OC)=NC3)ccc1C(=O)O + CC(CO)NC(=O)c1cc(-c2ccc(Cl)cc2)nn(-c2cnn(C)c2)c1=O",
    "classification": "condition not met"
  },
  {
    "compound": "Nc1ccccc1NC(=O)c1ccc(CNC(=O)OCc2cccnc2)cc1 + CC(CO)NC(=O)c1cc(-c2ccc(Cl)cc2)nn(-c2cnn(C)c2)c1=O",
    "classification": "condition met"
  }
]

Okay, next one:
Please state whether viability, T/C is below 70% for CC1COCCN1c1cc(-c2ccnn2C)c2ccnc(-c3ccn[nH]3)c2n1 (stereo not given) + Cc1ccccc1N=Nc1ccc(NC(=O)c2ccnn2C)c(C)c1 condition met
